Hey, just so you know, these numbers are from PubChem BioAssay (NCI).

# Tested on: HT29 colon
# ASSAY_PROTOCOL: NCI tumour cell line growth inhibition, 48 h
MEASUREMENT_KIND: TGI

>>> result("CC[C@@H]1CN(C)[C@H]2Cc3c([nH]c4ccccc34)C(=O)C[C@H]1C2C(=O)OC (stereo not given in full)")
"> 100 µM"
>>> result("Cc1nc(C)c(Cc2ccccc2)o1")
"> 100 µM"
>>> result("CC[C@]1(O)C[C@@H]2CN(CCc3c([nH]c4ccccc34)[C@@](C(=O)OC)(c3cc4c(cc3OC)N(C)[C@H]3[C@@](O)(C(=O)OC)[C@H](OC(C)=O)[C@]5(CC)C=CCN6CC[C@]43[C@@H]65)C2)C1")
"18.9 µM"
>>> result("CC(C)(C)C1C=C(Sc2ccccc2)C(=O)O1 (stereo not given)")
"> 100 µM"
>>> result("CC(=S)N=Cc1c(O)cc(C)oc1=O")
"> 100 µM"
>>> result("COc1cc2c(/C=C3/C(=O)Nc4ccccc43)c(Cl)[nH]c2cc1C")
"1.05 µM"
>>> result("CC1(C)C=C(S(=O)(=O)c2ccccc2)Oc2ccccc2O1")
"> 100 µM"
>>> result("COc1ccc(NC2=CC(=O)C(=O)c3ccccc32)nn1")
"3.54 µM"
>>> result("C=C1C(=O)O[C@H]2[C@H]1CC/C(Cn1cc(-c3ccc(OC)cc3)nn1)=C\\CC[C@@]1(C)O[C@@H]21")
"2.86 µM"
>>> result("CC(=O)CNC(=O)OC(C)(C)C")
"> 100 µM"
